Biological target: T1, TNFR1 (Homo sapiens, UniProt P19438)
T1 chain: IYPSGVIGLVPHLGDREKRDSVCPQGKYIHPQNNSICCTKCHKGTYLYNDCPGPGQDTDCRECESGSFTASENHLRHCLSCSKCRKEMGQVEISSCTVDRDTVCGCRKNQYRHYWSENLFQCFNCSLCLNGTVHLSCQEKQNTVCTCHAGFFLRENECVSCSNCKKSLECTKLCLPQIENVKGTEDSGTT
Assay: yeast display SC50
EXPERIMENTAL READOUT: apparent Kd (screen)

[[record]]
binder = "E5V (designed binder) MTLQVLLREEALRRAEAEAFRYALELLAEKFPEQKEYLLDLAEEIESQIRSLSGVDVEDVRKFLDKEWAWVKELLAEHPAELAEVEAARAARLAELRAEVEAKVAA"
measurement = "0.593 nM"

[[record]]
binder = "L41A (designed binder) MTLQELLREEALRRAEAEAFRYALELLAEKFPEQKEYLLDAAEEIESQIRSLSGVDVEDVRKFLDKEWAWVKELLAEHPAELAEVEAARAARLAELRAEVEAKVAA"
measurement = "2.48 nM"

